The entries below come with measured GI50 values attached.
tested on: SR; test: NCI tumour cell line growth inhibition, 48 h
The source made the active and inactive calls. Cut-off read from the data, not from the text of the source: active = GI50 up to about 1.1 µM and inactive = higher.
measurement kind: GI50

• C/C=C(\C)C(=O)OC1C(C)=C2C(C1OC(=O)CCCC)C(C)(OC(C)=O)CC(OC(=O)CCCC)C1(O)C2OC(=O)C1(C)O (centres undefined) = 0.951 µM (active)
• COc1ccc(-c2csc3c2[N+]2(C)C=CC=C2C3N2CCCC2)cc1 (centres undefined) = 5.28 µM (inactive)
• C[C@@H](C[C@H]1OC(C)(C)O[C@@H]1C(C)(C)O)[C@H]1CC=C2[C@]3(C)[C@H](O)C[C@H]4C(C)(C)[C@H](O)CC[C@]4(C)[C@H]3CC[C@]21C = 4.76 µM (inactive)
• CC1=C(C)C2(C#N)C(=O)N3C(=NC(c4ccco4)NC3c3ccco3)C2(C#N)C(c2ccco2)N1 (centres undefined) = > 100 µM (inactive)
• CS(=O)(=O)c1n[nH]c2nc(O)nc(O)c12 = > 10 µM (inactive)
• COC(=O)[C@@H](NS(=O)(=O)CC12CCC(CC1)C2(C)C)C(C)(C)C = 23.3 µM (inactive)
• S=C(Cc1ccc2c(c1)Sc1ccccc1O2)N1CCOCC1 = 26.7 µM (inactive)
• Cc1nc2n(c1/C=C1/C(=O)Nc3cccc(Cl)c31)CCS2 = > 100 µM (inactive)
• CCOC(=O)C(NC(=O)NCc1ccc(F)cc1)C(F)(F)F (centres undefined) = > 100 µM (inactive)
